Measured values drawn from patent US20170369590A1 for this set.

Attribute: % binding vs no competitor
# Tested system: T1, HER2ECDHis (human, UniProt P04626 23-653, biotinylated in the cross-block ELISA (sites not given))
# T1 construct: range 1-653; expressed in HEK-293F; also called soluble HER2; biotinylated HER2ECDHis
# Assay text: ELISA; competitor 129
Numeric answer only, unit % assumed.

Binder	% binding vs no competitor / %
HuMab 129 (antibody, V domains shown) VH: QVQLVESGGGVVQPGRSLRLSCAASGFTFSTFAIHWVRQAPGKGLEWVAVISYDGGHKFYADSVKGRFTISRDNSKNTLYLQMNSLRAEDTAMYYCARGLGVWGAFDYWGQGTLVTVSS VL: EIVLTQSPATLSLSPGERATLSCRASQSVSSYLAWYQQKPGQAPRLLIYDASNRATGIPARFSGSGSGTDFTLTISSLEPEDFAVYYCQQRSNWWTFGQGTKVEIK	12
HuMab 025 (antibody, V domains shown, also called TH1014-025; PC1014-025) VH: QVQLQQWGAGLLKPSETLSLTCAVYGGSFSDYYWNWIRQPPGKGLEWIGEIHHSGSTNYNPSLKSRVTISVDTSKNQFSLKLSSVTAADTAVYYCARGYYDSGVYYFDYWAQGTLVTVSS VL: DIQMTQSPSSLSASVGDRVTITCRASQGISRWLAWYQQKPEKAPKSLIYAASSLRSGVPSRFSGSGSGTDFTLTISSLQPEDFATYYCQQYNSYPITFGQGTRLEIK	15

Now look at this entry.
Recorded result, HuMab 050 (antibody, V domains shown, also called TH1014-050; PC1014-050) VH: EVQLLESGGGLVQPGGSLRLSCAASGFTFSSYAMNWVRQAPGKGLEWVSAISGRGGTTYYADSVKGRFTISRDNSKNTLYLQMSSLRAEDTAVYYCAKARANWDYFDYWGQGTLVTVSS VL: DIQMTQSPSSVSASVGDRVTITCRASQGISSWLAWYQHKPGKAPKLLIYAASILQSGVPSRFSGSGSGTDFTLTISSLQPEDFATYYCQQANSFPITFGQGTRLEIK , % binding vs no competitor: 110
